STUDY TARGET: UniProtKB P97612
Sequence (P97612 whole entry): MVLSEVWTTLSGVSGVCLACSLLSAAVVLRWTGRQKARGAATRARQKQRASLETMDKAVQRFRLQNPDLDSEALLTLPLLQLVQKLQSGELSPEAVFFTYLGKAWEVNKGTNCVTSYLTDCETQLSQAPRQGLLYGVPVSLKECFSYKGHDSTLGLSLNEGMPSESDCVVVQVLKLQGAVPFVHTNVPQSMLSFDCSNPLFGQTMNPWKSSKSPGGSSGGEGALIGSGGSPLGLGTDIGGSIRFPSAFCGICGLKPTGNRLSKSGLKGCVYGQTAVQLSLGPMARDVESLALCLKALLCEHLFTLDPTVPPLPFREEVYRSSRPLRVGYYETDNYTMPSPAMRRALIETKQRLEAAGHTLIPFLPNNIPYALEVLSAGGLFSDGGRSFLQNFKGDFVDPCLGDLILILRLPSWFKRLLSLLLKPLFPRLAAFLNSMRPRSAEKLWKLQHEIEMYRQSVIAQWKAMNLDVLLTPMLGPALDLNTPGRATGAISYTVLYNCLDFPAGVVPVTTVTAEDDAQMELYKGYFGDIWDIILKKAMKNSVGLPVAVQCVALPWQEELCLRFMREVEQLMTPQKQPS
pKi: −log10 of the molar value.

{"CHEMICAL SMILES": "CCCCCCCC/C=C\\CCCCCCCC(=O)c1ncco1", "pKi": 7.00}

All values here come from ChEMBL document CHEMBL1134092.
